species: Oryctolagus cuniculus; test: Inhibition of rabbit platelet PDE5A using [3H]cGMP as substrate at 1 uM after 30 mins by scintillation proximity assay
property measured: inhibition (%)

Examples with answers:
>>> df
                         compound_structure  recorded_value
0  CCCc1nn(C)c2c(=O)[nH]c(-c3cc(S(=O)(=O)N4CCN(C)CC4)ccc3OCC)nc12            98.9
1  CCOc1ccc(S(=O)(=O)N2CCN(C)CC2)cc1-c1nnc2c(n1)c(C)nn2C               6

1 = CCOc1ccc(S(=O)(=O)N2CCN(C)CC2)cc1-c1nnc2nn(C)c(C)c2n1
2 = CCOc1ccc(S(=O)(=O)N2CCCN(S(=O)(=O)c3ccc(OCC)c(-c4nnc5c(n4)c(C)nn5C)c3)CC2)cc1-c1nnc2c(n1)c(C)nn2C
Smaller inhibition value? Options are 1 and 2 State the label of the item chosen.
1
(1: 0%, 2: 26.7%)

====

system: Leptosphaeria sacchari; assay: Inhibition of Leptosphaeria sacchari tyrosinase using L-DOPA as substrate assessed as remaining activity at 0.3 mg/ml incubated for 10 mins prior to substrate addition […] by spectrophotometry
property measured: Activity (%)

Check out these entries, answers already filled in.
>>> print(df.to_string())
                         compound_structure  property_measured  recorded_value
0  CCOc1ccc(S(=O)(=O)N2CCCNCC2)cc1-c1nnc2c(n1)c(C)nn2C           Activity            33.5
1  CCOc1ccc(S(=O)(=O)N2CCCC2)cc1-c1nnc2c(n1)c(C)nn2C           Activity            39.6
2  CCOc1ccc(S(=O)(=O)N(CC)CC)cc1-c1nnc2c(n1)c(C)nn2C           Activity            31.7

A = CCOc1ccc(S(=O)(=O)NCCNS(=O)(=O)c2ccc(OCC)c(-c3nnc4c(n3)c(C)nn4C)c2)cc1-c1nnc2c(n1)c(C)nn2C
B = CCOc1ccc(S(=O)(=O)N2CCCCC2)cc1-c1nnc2c(n1)c(C)nn2C
For this pair, A and B , which shows a numerically higher Activity? The response must carry the label of the picked entry.
B
(B: 40.2%, A: 20.2%)

====

test: Inhibition of Leptosphaeria sacchari tyrosinase using L-DOPA as substrate incubated for 10 mins prior to substrate addition […] by spectrophotometry
property measured: IC50 (µg/mL)

Here is how some molecules turned out for IC50.
>>> df
                         compound_structure  recorded_value
0  CCOc1ccc(S(=O)(=O)N2CCCCC2)cc1-c1nnc2c(n1)c(C)nn2C             120
1  CCOc1ccc(S(=O)(=O)N2CCN(C)CC2)cc1-c1nnc2nn(C)c(C)c2n1             140
2  CCOc1ccc(S(=O)(=O)N2CCOCC2)cc1-c1nnc2c(n1)c(C)nn2C             150

A = CCOc1ccc(S(=O)(=O)N2CCNCC2)cc1-c1nnc2c(n1)c(C)nn2C
B = CCOc1ccc(S(=O)(=O)NCCNS(=O)(=O)c2ccc(OCC)c(-c3nnc4c(n3)c(C)nn4C)c2)cc1-c1nnc2c(n1)c(C)nn2C
Task for the reader: decide whether A or B has the larger IC50. Kindly give the label for the entry you pick.
B
